Source: patent US7256006B2

- System: ventricular myocytes from chicken embryos
- Assay Method Text: extracellular MEA field potential (FPdur) measurement on spontaneously beating heart cells
- Type: cell-based
Reported Endpoint: effect on the QT interval

Guide cases for effect on the QT interval, answers given:
Query: What does the data say about its effect on the QT interval? Entry: COc1cc(N)c(Cl)cc1C(=O)NC1CCN(CCCOc2ccc(F)cc2)CC1OC (stereo not drawn) [cisapride]
Response: prolongating effect

Query: How about this molecule: CC(C)NCC(O)c1ccc(NS(C)(=O)=O)cc1 (stereo not drawn) [sotalol]
Response: prolongating effect

Query: What would you report for COc1ccc(CCN2CCC(Nc3nc4ccccc4n3Cc3ccc(F)cc3)CC2)cc1 [astemizol] ?
Response: prolongating effect

Query: # iterate: CC(C)(C(=O)O)c1ccc(C(O)CCCN2CCC(C(O)(c3ccccc3)c3ccccc3)CC2)cc1 (stereo not drawn) [fexofenafine]
Response: prolongating effect

Next up:
Query: Entry CC(C)(C)c1ccc(C(O)CCCN2CCC(C(O)(c3ccccc3)c3ccccc3)CC2)cc1 (stereo not drawn) [terfenadin] : reported effect on the QT interval = ?
Response: prolongating effect
